This collection of values is drawn from paper PMC4186968.

# system-name: T1, FAM-labeled Trf4p NIM peptide
# T1 chain: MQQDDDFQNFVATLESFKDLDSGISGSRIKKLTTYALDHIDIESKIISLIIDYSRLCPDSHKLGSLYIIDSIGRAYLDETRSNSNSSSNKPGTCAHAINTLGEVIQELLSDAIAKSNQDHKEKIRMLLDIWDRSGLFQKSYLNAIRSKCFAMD
# test-protocol: fluorescence anisotropy (FA) equilibrium binding
# particulars: chain shown with the change
parameter: Kd
Answer with the figure and its unit, nothing else.

Any idea what its Kd is? The binder is DDDEDGYNPYTL [Nrd1p CID (residues 1-153), P53617 K21D]
35.4 µM
